testedTarget: T1, human recombinant GIP receptor (human, UniProt P48546 22-466)
T1 construct: whole, on cells; Assayed as washed membranes of CHO-K1 cells expressing the receptor; also called hGIP receptor
T1 sequence (looked up): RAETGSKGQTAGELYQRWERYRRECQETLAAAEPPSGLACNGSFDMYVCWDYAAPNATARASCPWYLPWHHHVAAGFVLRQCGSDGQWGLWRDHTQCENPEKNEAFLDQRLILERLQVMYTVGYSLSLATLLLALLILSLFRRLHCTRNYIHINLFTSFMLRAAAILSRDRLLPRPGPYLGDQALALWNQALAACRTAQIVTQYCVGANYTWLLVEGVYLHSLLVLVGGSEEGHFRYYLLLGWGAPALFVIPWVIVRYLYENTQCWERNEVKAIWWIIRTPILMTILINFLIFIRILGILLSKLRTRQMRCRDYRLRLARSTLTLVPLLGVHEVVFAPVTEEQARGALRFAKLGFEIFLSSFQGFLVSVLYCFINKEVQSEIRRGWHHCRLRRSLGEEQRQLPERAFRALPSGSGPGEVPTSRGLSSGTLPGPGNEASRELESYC
measurementNotes: displacement of [125I]GIP, membranes of CHO-K1 cells expressing human GIP receptor
testReadout: Ki (nM)

binder: YXEGTFISDYXIAMDKIHQQDFVNWLLAQKGKKNDWKHNIXQ (Tyr(Ac) at 1; Aib at 2; A5c at 11 and 41) [[Tyr(Ac)^1, Aib^2, A5c^11, 41]hGIP(1-42)-OH]
Ki, nM: 0.73

[P] FXEGTFISDYXIAXDKIHQQDFVNWLLAQKGKKNDWKHNITQ (3,4F-Phe at 1; Aib at 2; A5c at 11; Nle at 14) [(3,4F-Phe^1, Aib^2, A5c^11, Nle^14)hGIP(1-42)-OH]
[Q] YXEGTFISDYXIAXDKIHQQDFVNWLLAQKGKKNDWKHNITQH (2,6Me-Tyr at 1; Aib at 2; A5c at 11; Nle at 14) [(2,6Me-Tyr^1, Aib^2, A5c^11, Nle^14, His^43)hGIP(1-43)-OH]
[R] YAEGTFISDYXIAXDKIHQQDFVNWLLAQKGKKNDWKHNITQH (3Cl-Tyr at 1; D-Ala at 2; A5c at 11; Nle at 14, X stands for a non-natural residue) [(3Cl-Tyr^1, D-Ala^2, A5c^11, Nle^14, His^43)hGIP(1-43)-OH]
List by increasing Ki. Could you list the labels in the order requested? R, P, Q
(R: 8.89 nM, P: 15.7 nM, Q: 39 nM)

[1] XXEGTFISDYXIAXDKIHQQDFVNWLLAQK (4Hppa at 1; Aib at 2 and 11; Nle at 14; C-terminal amide) [(4Hppa^1, Aib^2, 11, Nle^14)hGIP(1-30)-NH2]
[2] YXEGTFISDYSIXXDKIHQQDFVNWLLAQKGKKNDWKHNITQ (3,5Br-Tyr at 1; Aib at 2 and 13; Nle at 14) [(3,5Br-Tyr^1, Aib^2, 13, Nle^14)hGIP(1-42)-OH]
Lab note: record which item had the higher Ki, 1 or 2 . Answer = label. 1
(1: 20.3 nM, 2: 4.26 nM)
